test system: RARα-ERcassette; test: Transactivation, chimerical receptor RARα-ERcassette (HeLa); type: cell-based; conditions: 10^-6 M; TTNPB 10^-8 M = 100
The threshold is inclusive: RAR-ERcassette RARα transactivation of exactly 200% counts as 1 (yes); values below receive 0 (no).

Query string: Does the compound C/C(=C/c1ccc2c(c1)C(C)(C)CCC2(C)C)c1ccc(C(=O)O)cc1 [CB28628, reference compound] have recorded RAR-ERcassette RARα transactivation that is 200% or more?
Result string: 0 (no)

Query string: Does the compound CC1(C)CCC(C)(C)c2cc(/C=C(\c3ccc(C(=O)O)cc3)C(F)(F)F)ccc21 have recorded RAR-ERcassette RARα transactivation that is 200% or more?
Result string: 0 (no)

Query string: Does the compound CC(C=C/C=C(C)\C=C\C1=C(C)CCCC1(C)C)=CC(=O)O [CB13407, 9-cis retinoic acid, reference compound] have recorded RAR-ERcassette RARα transactivation that is 200% or more?
Result string: 1 (yes)

Query string: Does the compound C/C(=C/c1ccc2c(c1)C(C)(C)CCC2(C)C)c1ccc(-c2nnn[nH]2)cc1 have recorded RAR-ERcassette RARα transactivation that is 200% or more?
Result string: 0 (no)

Query string: Does the compound C/C(=C\c1ccc2c(c1)C(C)(C)CCC2(C)C)c1ccc(C(=O)O)nc1 have recorded RAR-ERcassette RARα transactivation that is 200% or more?
Result string: 0 (no)

Query string: Does the compound C/C(=C\c1ccc2c(c1)C(C)(C)CCC2(C)C)c1ccc(C(=O)Nc2nnn[nH]2)cc1 have recorded RAR-ERcassette RARα transactivation that is 200% or more?
Result string: 0 (no)

src = patent US6265423A
